Entry source: patent US20060293307A1

System: S. pneumoniae AB 29
assay_comment: MIC, agar incorporation method
Type: cell-based, Streptococcus pneumoniae
condition_notes: Streptococcus pneumoniae, AB29
Reported MIC values for the following compounds.
Reply with just the number (in µg/mL).

compound | system_name | readout_kind | measurement_unit | quantitative_readout
CC(=O)NC[C@H]1CN(c2ccc(N3CCN(c4ccc([N+](=O)[O-])s4)CC3)c(F)c2)C(=O)O1 | S. pneumoniae AB 29 | MIC | µg/mL | 0.125
CN[C@H](CC(C)C)C(=O)N[C@H]1C(=O)N[C@@H](CC(N)=O)C(=O)N[C@H]2C(=O)N[C@H]3C(=O)N[C@H](C(=O)N[C@H](C(=O)O)c4cc(O)cc(O)c4-c4cc3ccc4O)[C@H](O)c3ccc(c(Cl)c3)Oc3cc2cc(c3O[C@@H]2O[C@H](CO)[C@@H](O)[C@H](O)[C@H]2O[C@H]2C[C@](C)(N)[C@H](O)[C@H](C)O2)Oc2ccc(cc2Cl)[C@H]1O [Vancomycin, reference compound] | S. pneumoniae AB 29 | MIC | µg/mL | 0.25
O=C(NC[C@H]1CN(c2ccc(N3CCN(c4ccc([N+](=O)[O-])s4)CC3)c(F)c2)C(=O)O1)C(F)F | S. pneumoniae AB 29 | MIC | µg/mL | 0.25

Next:
State its MIC on S. pneumoniae AB 29: CC(=O)NC[C@H]1CN(c2ccc(N3CCOCC3)c(F)c2)C(=O)O1 [Linezolid, reference compound] 1

----------
Reported MIC values for the following compounds.
System: M. tuberculosis PC
assay_comment: MIC against M. tuberculosis strains, agar dilution
Assay type: cell-based, Mycobacterium tuberculosis
condition_notes: S. No. 16 Mt-, Middle Brook 7H10 + OADC, 37° C., 14-21 days

Below, 3 compounds whose answers are already recorded.
compound_smiles | MIC
CC[C@H]1OC(=O)[C@H](C)[C@@H](O[C@H]2C[C@@](C)(OC)[C@@H](O)[C@H](C)O2)[C@H](C)[C@@H](O[C@@H]2O[C@H](C)C[C@H](N(C)C)[C@H]2O)[C@](C)(OC)C[C@@H](C)C(=O)[C@H](C)[C@@H](O)[C@]1(C)O | 8.0 µg/mL
CO[C@H]1/C=C/O[C@@]2(C)Oc3c(C)c(O)c4c(O)c(c(/C=N/N5CCN(C)CC5)c(O)c4c3C2=O)NC(=O)/C(C)=C\C=C\[C@H](C)[C@H](O)[C@@H](C)[C@@H](O)[C@@H](C)[C@H](OC(C)=O)[C@@H]1C | 4.0 µg/mL
CCc1cc(C(N)=S)ccn1 | 32 µg/mL

Would you mind telling me what MIC value was observed for `NNC(=O)c1ccncc1` ? 8.0 µg/mL

Would you mind telling me what MIC value was observed for `C[C@@H]1CN(c2c(F)c(N)c3c(=O)c(C(=O)O)cn(C4CC4)c3c2F)C[C@H](C)N1` ? 2.0 µg/mL

----------
Test system: E. faecalis 29212
assay_comment: MIC, agar incorporation method
Type: cell-based
condition_notes: S. No. 17, E. faecalis 29212
Reported MIC values for the following compounds.
Reply with just the number (in µg/mL).

Below, 2 compounds whose answers are already recorded.
compound_smiles | system_name | quantitative_readout
CC(=O)NC[C@H]1CN(c2ccc(N3CCN(c4ccc([N+](=O)[O-])s4)CC3)cc2)C(=O)O1 | E. faecalis 29212 | 1
O=C(NC[C@H]1CN(c2ccc(N3CCN(c4ccc([N+](=O)[O-])s4)CC3)c(F)c2)C(=O)O1)C(Cl)Cl | E. faecalis 29212 | 1

State its MIC on E. faecalis 29212: `CC(=O)NC[C@H]1CN(c2ccc(N3CCN(c4cc(C(OC(C)=O)OC(C)=O)sc4[N+](=O)[O-])CC3)c(F)c2)C(=O)O1` 2
